inhibition overview
- assay target: Rho-associated protein kinase 2 (Homo sapiens) (UniProt O75116)
- Sequence (O75116 whole entry, looked up): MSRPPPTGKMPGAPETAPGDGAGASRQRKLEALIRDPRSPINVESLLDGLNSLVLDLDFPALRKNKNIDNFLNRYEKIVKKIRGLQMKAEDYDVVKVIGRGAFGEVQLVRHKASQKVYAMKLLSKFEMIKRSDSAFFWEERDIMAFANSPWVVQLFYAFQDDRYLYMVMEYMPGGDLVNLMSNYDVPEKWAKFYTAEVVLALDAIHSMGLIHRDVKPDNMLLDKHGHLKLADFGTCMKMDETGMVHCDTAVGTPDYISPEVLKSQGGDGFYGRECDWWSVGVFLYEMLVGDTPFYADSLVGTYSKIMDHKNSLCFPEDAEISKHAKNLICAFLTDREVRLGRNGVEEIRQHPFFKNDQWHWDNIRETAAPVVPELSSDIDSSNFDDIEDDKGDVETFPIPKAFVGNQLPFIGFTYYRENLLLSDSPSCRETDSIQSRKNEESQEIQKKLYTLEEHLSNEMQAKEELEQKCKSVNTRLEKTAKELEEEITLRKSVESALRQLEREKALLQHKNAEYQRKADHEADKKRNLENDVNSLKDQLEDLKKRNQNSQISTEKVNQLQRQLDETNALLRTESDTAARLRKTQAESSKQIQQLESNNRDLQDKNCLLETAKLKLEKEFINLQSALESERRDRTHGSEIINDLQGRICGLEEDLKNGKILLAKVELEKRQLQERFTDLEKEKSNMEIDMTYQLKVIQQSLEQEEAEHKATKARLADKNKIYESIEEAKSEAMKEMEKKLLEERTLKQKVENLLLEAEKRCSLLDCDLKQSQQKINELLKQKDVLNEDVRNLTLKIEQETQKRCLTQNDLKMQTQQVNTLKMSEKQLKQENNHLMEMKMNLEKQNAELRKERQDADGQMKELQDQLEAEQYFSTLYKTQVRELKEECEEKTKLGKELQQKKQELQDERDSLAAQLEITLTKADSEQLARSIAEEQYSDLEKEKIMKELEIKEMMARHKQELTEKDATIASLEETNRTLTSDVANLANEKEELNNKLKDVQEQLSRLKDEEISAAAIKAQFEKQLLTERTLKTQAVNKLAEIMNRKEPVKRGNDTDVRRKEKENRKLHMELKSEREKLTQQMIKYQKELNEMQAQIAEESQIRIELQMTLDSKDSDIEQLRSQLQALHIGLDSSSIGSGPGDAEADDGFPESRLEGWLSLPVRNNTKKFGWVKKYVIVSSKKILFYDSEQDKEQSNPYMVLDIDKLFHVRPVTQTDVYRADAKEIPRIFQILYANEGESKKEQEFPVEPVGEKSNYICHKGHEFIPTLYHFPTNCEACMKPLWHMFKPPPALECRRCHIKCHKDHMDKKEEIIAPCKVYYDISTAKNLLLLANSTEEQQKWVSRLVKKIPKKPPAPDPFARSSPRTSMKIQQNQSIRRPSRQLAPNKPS
- assay summary: inhibitors of human ROCK2 kinase, primary screen, biochemical, high-throughput, luminescence (AID 604);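 note: plate controls were DMSO wells for no effect and Y-27632 control wells after no-enzyme background subtraction for full effect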
- assay conditions: purified ROCK2, Kinase-Glo ATP depletion luminescence; at 6 µM; active compounds read high
About 210 (0.35%) of roughly 60,000 compounds were called active. This excerpt belongs to a sample that is enriched for actives.
// note: answer is a bare numeric in %

Check out these entries, answers already filled in.
1. COc1ccc(CNC(=O)c2cc3c(=O)n4ccccc4nc3n(CC3CCCO3)c2=N)cc1 (stereo not drawn) ... 5.4
2. CC(C)NS(=O)(=O)c1ccc(CCC(=O)N2CCOCC2)cc1 ... 1.3
3. COC(=O)c1[nH]c2ccccc2c1NS(=O)(=O)c1ccc(OC)cc1OC ... 5.9
4. CCC(Sc1nncn1C)C(=O)Nc1nnc(-c2ccc(Cl)cc2)s1 (stereo not drawn) ... 3.6
5. Cc1ccc(S(=O)(=O)N2CCCC2C(=O)NCc2ccco2)cc1 (stereo not drawn) ... -1.2
6. O=C(CSc1nnc(-c2ccco2)n1Cc1ccccc1)NC(=O)NCc1ccco1 ... 5.5
7. O=C1CC(N2CCN(C(c3ccccc3)c3ccccc3)CC2)C(=O)N1 (stereo not drawn) ... 5.5
8. O=C(CSc1nnc(-c2cccnc2)n1Cc1ccco1)c1ccc(Cl)cc1 ... 2.8
9. CCOC(=O)C1CCN(C(=O)C2CCN(S(=O)(=O)CC)CC2)CC1 ... -1.2
10. NC(=O)Cn1c(=O)oc2ccccc21 ... -2

Q: Give its inhibition value. Item: COc1cccc(-c2nn(C)c3sc(C(=O)N4CCN(c5ccccc5)CC4)cc23)c1
Ans: 6.1

Q: Now this one: CSc1ccc(NC(=O)N2CC(C)OC(C)C2)cc1 (stereo not drawn)
Ans: 6.5

Q: Now this one: CC(C)OC(=O)C(C#N)c1nc2ccccc2nc1N1CCN(Cc2ccc3c(c2)OCO3)CC1 (stereo not drawn)
Ans: 3.1

Q: Now this one: COc1ccc(C(=O)Nc2c(N)nc(SCC(=O)N3CCC(C)CC3)[nH]c2=O)cc1OC
Ans: 1.5

Q: Now this one: O=[n+]1c2c(n([O-])c3cc(Br)ccc31)CCC2
Ans: -5

* * *

inhibition overview
- assay target: Rho-associated protein kinase 2 (Homo sapiens)
- assay summary: inhibitors of human ROCK2 kinase, primary screen, biochemical, high-throughput, luminescence (AID 604)
- assay conditions: purified ROCK2, Kinase-Glo ATP depletion luminescence; at 6 µM; active compounds read high
About 210 (0.35%) of roughly 60,000 compounds were called active. Shown is part of a subset that was picked to be rich in actives.
// note: answer is a bare numeric in %

Q: Form field - read-out: inhibition; system: Rho-associated protein kinase 2 (Homo sapiens); submitted item: CCCOc1ccc(N2CC(C(=O)Nc3ccccn3)CC2=O)cc1 (configuration not stated)
Ans: 2.5

Q: Now this one: C=CCn1cnc2scc(-c3ccccc3)c2c1=O
Ans: 1.2

* * *

- assay target: Rho-associated protein kinase 2 (Homo sapiens) (UniProt O75116)
- assay summary: inhibitors of human ROCK2 kinase, primary screen, biochemical, high-throughput, luminescence (AID 604)
- assay conditions: purified ROCK2, Kinase-Glo ATP depletion luminescence; at 6 µM; active compounds read high
Out of some 60,000 compounds screened, about 210 (0.35%) were called active. Only a selection was taken, and actives are over-represented in it overall.
measure: inhibition (%)
// note: answer is a bare numeric in %

1. CCCCCCn1c(CN2CCCCC2)nc2c1c(=O)n(C)c(=O)n2C ... -1.3

Q: Give its inhibition value. Item: Cc1nn(-c2ccccc2)c(C)c1C(=O)OCC(=O)NC(=O)NC1CCCCC1
Ans: 1.4

Q: Now this one: CC(=O)N1CSCC1C(=O)O (stereo unspecified)
Ans: 2.3

Q: Now this one: Cc1occc1C(=O)N1CCCc2ccccc21
Ans: 1

Q: Now this one: O=c1c(-c2ccc3c(c2)OCCO3)c(C(F)(F)F)oc2cc(O)cc(O)c12
Ans: -3.1

* * *

inhibition overview
- assay target: Rho-associated protein kinase 2 (Homo sapiens)
- assay summary: inhibitors of human ROCK2 kinase, primary screen, biochemical, high-throughput, luminescence (AID 604);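 note: plate controls were DMSO wells for no effect and Y-27632 control wells after no-enzyme background subtraction for full effect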
- assay conditions: purified ROCK2, Kinase-Glo ATP depletion luminescence; at 6 µM; active compounds read high
Out of some 60,000 compounds screened, about 210 (0.35%) were called active. This is one part of a sample in which actives are shown more often than they occur.

Check out these entries, answers already filled in.
1) COc1ccc(-c2[nH]nc3c2C(c2ccncc2)C(C#N)=C(N)O3)cc1 (stereo unspecified) ... -0.8% (inactive)
2) CC1(C)C2CCC1(C)C(OC(=O)CCn1ccnc1)C2 (stereo unspecified) ... 6.6% (inactive)
3) N#CCCN1CCN(S(=O)(=O)c2ccc(S(=O)(=O)NC3CC3)cc2)CC1 ... 1.7% (inactive)
4) Fc1cnc(N2CCOCC2)nc1NCc1ccccc1 ... -0.4% (inactive)
5) CN1C(=O)c2ccc(NC(=O)c3c(F)c(F)c(F)c(F)c3F)cc2C1=O ... 9.3% (inactive)

Moving on to the next compound.
Q: Give its inhibition value. Item: Cc1cn(C2C=CC(CO)O2)c(=O)[nH]c1=O (stereo unspecified)
Ans: 6.1% (inactive)

* * *

- assay target: Rho-associated protein kinase 2 (Homo sapiens) (UniProt O75116)
- assay summary: inhibitors of human ROCK2 kinase, primary screen, biochemical, high-throughput, luminescence (AID 604);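 note: plate controls were DMSO wells for no effect and Y-27632 control wells after no-enzyme background subtraction for full effect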
- assay conditions: purified ROCK2, Kinase-Glo ATP depletion luminescence; at 6 µM; active compounds read high
About 210 (0.35%) of roughly 60,000 compounds were called active. What follows is part of a selection rich in actives, with near analogues and random picks from the rest.
measure: inhibition (%)
// note: answer is a bare numeric in %

Check out these entries, answers already filled in.
1) Cc1nn(Cc2ccc(Cl)c(Cl)c2)c(C)c1NC(=O)c1cc(C2CC2)on1 ... -8.2
2) CCn1c(CSc2ncccn2)nnc1SCC(=O)N1c2ccccc2CC1C (stereo not drawn) ... 1.2
3) CC(=C1C(=O)c2ccccc2C1=O)N1CCN(c2ccccn2)CC1 ... 7.8
4) Cc1nonc1OCCn1nnnc1N ... 4
5) COCCN1C(=O)c2oc3c(C)cc(C)cc3c(=O)c2C1c1cccc(O)c1 (stereo not drawn) ... -3
6) COc1ccc(OC)c(N=Cc2c(O)[nH]c3ccccc23)c1 ... 12.3
7) COc1ccc(-n2c(SCC(=O)Nc3ccc4c(c3)OCO4)nnc2C(C)N2CCCCC2)cc1 (stereo not drawn) ... 1

Moving on to the next compound.
Q: Give its inhibition value. Item: CCOc1ccccc1NC(=O)CCc1ccc(C)o1
Ans: 0.9

* * *

- assay target: Rho-associated protein kinase 2 (Homo sapiens) (UniProt O75116)
- assay summary: inhibitors of human ROCK2 kinase, primary screen, biochemical, high-throughput, luminescence (AID 604);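 note: plate controls were DMSO wells for no effect and Y-27632 control wells after no-enzyme background subtraction for full effect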
- assay conditions: purified ROCK2, Kinase-Glo ATP depletion luminescence; at 6 µM; active compounds read high
The whole screen tested about 60,000 compounds, of which about 210 (0.35%) were called active. What follows is part of a selection rich in actives, with near analogues and random picks from the rest.
inhibition overview
// note: answer is a bare numeric in %

1) O=C1c2oc3ccccc3c(=O)c2C(c2cccc(O)c2)N1c1ccccn1 (stereo not given) ... 1
2) O=C(CSc1nnc2scc(-c3ccc(F)cc3)n12)NCc1ccco1 ... 2.1
3) CC(=O)Nc1nonc1-c1nc2ccccc2n1Cc1ccccn1 ... 2.3
4) O=C(Nn1cnc2ccccc2c1=O)c1ccc(F)cc1Cl ... 4.2
5) CC1CCC(NS(=O)(=O)c2ccc3c(c2)n(C)c(=O)c(=O)n3C)CC1 (stereo not given) ... 3.2

Q: Give its inhibition value. Item: CC(C)=C(NC(=O)c1ccco1)C(=O)NCCc1nc2ccccc2[nH]1
Ans: 1.2

Q: Now this one: COc1cc(=O)[nH]c(=O)n1C(=O)Cc1ccccc1
Ans: -0.6

Q: Now this one: O=C(c1ccco1)N1CCN(C(=O)C2CC(c3ccc(F)cc3)=NO2)CC1 (stereo not given)
Ans: 1.1

Q: Now this one: C[C@H](NC(=O)NCCc1ccccc1)C(=O)O
Ans: 4.7

Q: Now this one: O=C(NCc1ccco1)c1cnn2c(C(F)(F)F)cc(-c3ccco3)nc12
Ans: 12.9

Q: Now this one: Cc1c(C(=O)N2CC(C)OC(C)C2)sc2nc(-c3ccccc3)cn12 (stereo not given)
Ans: 8.6

Q: Now this one: COc1ccccc1N(CC(=O)N1CCCCC1)S(=O)(=O)c1ccccc1
Ans: 5.5

Q: Now this one: O=C(c1ccco1)N1CCN(C(=O)C2c3ccccc3Oc3ccccc32)CC1
Ans: -3.5

Q: Now this one: C=CCn1c(=S)[nH]c2nc3c(cc2c1=O)COC(C)(C)C3
Ans: 8

Q: Now this one: COC(=O)C(C)n1cnc2c(nnn2-c2cccc(Cl)c2)c1=O (stereo not given)
Ans: 7.7

Q: Now this one: Cc1cc(NC(=O)CSCc2nc(-c3cccc(Cl)c3)oc2C)no1
Ans: 3.5

Q: Now this one: CC(C)n1c(NCc2c[nH]c3ccccc23)nc2ccccc21
Ans: 2.4

Q: Now this one: O=C(c1ccc(S(=O)(=O)N2CCOCC2)cc1)N1CCN(c2ccccc2)CC1
Ans: 2.3

Q: Now this one: CC(C)C1Cc2c(sc3c2c(=O)n(-c2ccccc2)c2nncn32)CO1 (stereo not given)
Ans: 5.5

Q: Now this one: CCN(CC(=O)NCc1cccs1)c1nnnn1-c1ccccc1
Ans: -4.6

Q: Now this one: OCCNCCCCOc1ccccc1F
Ans: 5.9

Q: Now this one: CCSc1nc(=S)n(CC)c(C)c1C(C)=O
Ans: 0.9

Q: Now this one: Cc1c(NC(=O)C(C)OC(=O)c2cc3c4ccccc4n(C)c3s2)c(=O)n(-c2ccccc2)n1C (stereo not given)
Ans: 5.5

Q: Now this one: COC(=O)c1cc(OC)c(OC)cc1NC(=O)C1CCCO1 (stereo not given)
Ans: 5.6
